These measurements were taken from patent US10278962B2.

// reported pIC50 per item
Target: ACAT2 (Homo sapiens (Human))
Assay: Inhibitory effect on ACAT2 activity, NBD22-fluorescent labeled sterol method in intact HepG2 cells
Assay type: cell-based
Conditions: NBD22-fluorescent labeled sterol, 6 hours incubation
The read-out pIC50 is expressed as -log10 of concentration in moles per litre.

Fill in reported pIC50 for this entry: CC(=O)OCC(C)(OC(C)=O)[C@H]1CC2[C@@H](O)c3c(cc(-c4cccnc4)oc3=O)O[C@]2(C)[C@@H](OC(C)=O)C1 (stereo in doubt) [Compound 16]
6.61

Fill in reported pIC50 for this entry: CC(=O)OC[C@](C)(OC(C)=O)[C@@H]1C[C@@H]2[C@H](O)c3c(cc(-c4cccnc4)oc3=O)O[C@@]2(C)[C@H](OC(C)=O)C1 [Compound 26]
6.36

---

Target: ACAT2 (Homo sapiens (Human))
Assay: Cholesterol oxidase method for ACAT activity in HepG2 cells, ACAT2
Assay type: cell-based
Conditions: 10 μg/ml cholesterol, 9 hours
recorded_endpoint: IC50 (nM)
Form entry: value (nM) — number only.

Take a look at these entries with their results.
compound	uom	measured_number
CC(=O)OCC(C)(OC(C)=O)[C@@H]1C[C@H](OC(=O)c2ccc(C#N)cc2)[C@@]2(C)Oc3cc(-c4cccnc4)oc(=O)c3[C@@H](OC(C)=O)[C@@H]2C1 (stereo partly drawn)	nM	61
CC(O)(COC(=O)c1ccc(C#N)cc1)[C@@H]1C[C@H](OC(=O)c2ccc(C#N)cc2)[C@@]2(C)Oc3cc(-c4cccnc4)oc(=O)c3C(=O)[C@@H]2C1 (stereo partly drawn)	nM	12

API: the following record is the query input.
Fill in reported IC50 for this entry: CC(O)(COC(=O)c1ccc(C#N)cc1)[C@@H]1C[C@H](O)[C@@]2(C)Oc3cc(-c4cccnc4)oc(=O)c3C(=O)[C@@H]2C1 (stereo partly drawn)
129

---

Target: ACAT2 (Homo sapiens (Human), UniProt O75908)
Sequence (O75908 whole entry): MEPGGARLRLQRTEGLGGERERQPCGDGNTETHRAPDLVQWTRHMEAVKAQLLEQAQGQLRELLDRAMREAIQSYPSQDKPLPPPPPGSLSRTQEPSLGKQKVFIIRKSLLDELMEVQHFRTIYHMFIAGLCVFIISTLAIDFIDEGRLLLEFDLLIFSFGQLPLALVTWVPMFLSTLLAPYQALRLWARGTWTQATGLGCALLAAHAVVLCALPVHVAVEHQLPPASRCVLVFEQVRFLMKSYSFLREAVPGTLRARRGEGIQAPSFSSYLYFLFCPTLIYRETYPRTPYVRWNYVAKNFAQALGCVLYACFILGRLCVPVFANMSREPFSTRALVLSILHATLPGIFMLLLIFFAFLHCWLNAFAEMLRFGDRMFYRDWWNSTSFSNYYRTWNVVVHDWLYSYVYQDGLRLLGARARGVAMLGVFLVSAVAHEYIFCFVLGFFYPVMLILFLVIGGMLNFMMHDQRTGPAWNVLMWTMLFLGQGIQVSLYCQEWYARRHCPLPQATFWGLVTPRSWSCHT
Assay: Cholesterol oxidase method for ACAT activity in HepG2 cells, ACAT2
Format: cell-based
Details: 10 μg/ml cholesterol, 9 hours
Description: HepG2 cells were used for testing the inhibitory effect of compounds at different concentrations on ACAT1 or ACAT2 activity, thereby obtaining IC50 to calculate SI(ACAT1-IC50/ACAT2-IC50). HepG2 cells were cultured in a 6-well plate at a starting density of 4×10^5 cells per well for 24 hours, then the medium was replaced and 10 μg/ml of cholesterol and the compounds at different concentrations were added. […]
recorded_endpoint: IC50 (µM)
Form entry: value (µM) — number only.

Take a look at these entries with their results.
compound	study_system	uom	IC50
CC(=O)OCC(C)(OC(C)=O)[C@@H]1C[C@H](OC(C)=O)[C@@]2(C)Oc3cc(-c4cccnc4)oc(=O)c3[C@@H](O)[C@@H]2C1 (stereo partly drawn) [Compound 7]	ACAT2 (Homo sapiens (Human), UniProt O75908)	µM	0.147
CC(=O)OC[C@](C)(OC(C)=O)[C@H]1C[C@@H](OC(C)=O)[C@]2(C)Oc3cc(-c4cccnc4)oc(=O)c3[C@@H](O)[C@@H]2C1 [Compound 22]	ACAT2 (Homo sapiens (Human), UniProt O75908)	µM	0.09

Find the measured IC50 of CC(=O)OC[C@](C)(OC(C)=O)[C@@H]1C[C@@H]2[C@@H](O)c3c(cc(-c4cccnc4)oc3=O)O[C@@]2(C)[C@H](OC(C)=O)C1 [Compound 21] with ACAT2 (Homo sapiens (Human), UniProt O75908) as test system.
0.055

---

Target: ACAT2 (Homo sapiens (Human))
Experiment: Inhibitory effect on ACAT2 activity, NBD22-fluorescent labeled sterol method in intact HepG2 cells
Assay type: cell-based
Conditions: NBD22-fluorescent labeled sterol, 6 hours incubation
pIC50: −log10 of the molar value.
Think of 7 as a floor: if pIC50 stands on it or above, it is met; beneath it, not met.

compound	cat
CC(O)(COC(=O)c1ccc(C#N)cc1)[C@@H]1C[C@H](OC(=O)c2ccc(C#N)cc2)[C@@]2(C)Oc3cc(-c4cccnc4)oc(=O)c3C(=O)[C@@H]2C1 (some centres unmarked)	met

Could you now consider this next compound?
Say whether CC(=O)OCC(C)(OC(C)=O)[C@@H]1C[C@H](OC(C)=O)[C@@]2(C)Oc3cc(-c4cccnc4)oc(=O)c3[C@@H](O)[C@@H]2C1 (some centres unmarked) [Compound 15] shows pIC50 of 7 or more.
not met

---

Target: ACAT2 (Homo sapiens (Human), UniProt O75908)
Assay: Inhibitory effect on ACAT2 activity, NBD22-fluorescent labeled sterol method in intact HepG2 cells
Type: cell-based
Settings: NBD22-fluorescent labeled sterol, 6 hours incubation
recorded_endpoint: IC50 (nM)
Form entry: value (nM) — number only.

Take a look at these entries with their results.
compound	study_system	IC50 [nM]
CC(=O)OCC(C)(OC(C)=O)[C@@H]1C[C@H](OC(C)=O)[C@@]2(C)Oc3cc(-c4cccnc4)oc(=O)c3[C@@H](O)[C@@H]2C1 (stereo partly drawn) [Compound 7]	ACAT2 (Homo sapiens (Human), UniProt O75908)	152
CC(=O)OC[C@](C)(OC(C)=O)[C@H]1C[C@@H](OC(C)=O)[C@]2(C)Oc3cc(-c4cccnc4)oc(=O)c3[C@@H](O)[C@@H]2C1	ACAT2 (Homo sapiens (Human), UniProt O75908)	86
CC(=O)OC[C@](C)(OC(C)=O)[C@@H]1C[C@@H]2[C@@H](O)c3c(cc(-c4cccnc4)oc3=O)O[C@@]2(C)[C@H](OC(C)=O)C1	ACAT2 (Homo sapiens (Human), UniProt O75908)	78
CC(=O)OCC(C)(OC(C)=O)[C@@H]1C[C@H](OC(=O)c2ccc(C#N)cc2)[C@@]2(C)Oc3cc(-c4cccnc4)oc(=O)c3[C@@H](OC(C)=O)[C@@H]2C1 (stereo partly drawn)	ACAT2 (Homo sapiens (Human), UniProt O75908)	86
CC(=O)OC[C@](C)(O)[C@H]1C[C@@H](O)[C@]2(C)Oc3cc(-c4cccnc4)oc(=O)c3[C@H](O)[C@H]2C1	ACAT2 (Homo sapiens (Human), UniProt O75908)	81

Find the measured IC50 of CC(O)(COC(=O)c1ccc(C#N)cc1)[C@@H]1C[C@H](O)[C@@]2(C)Oc3cc(-c4cccnc4)oc(=O)c3C(=O)[C@@H]2C1 (stereo partly drawn) with ACAT2 (Homo sapiens (Human), UniProt O75908) as test system.
103
